Each recorded value in this set is attributed to patent US6001988.

tgt: T1, E-selectin (ES-Rg) (Homo sapiens, UniProt P16581 P16581:22-556)
T1 chain: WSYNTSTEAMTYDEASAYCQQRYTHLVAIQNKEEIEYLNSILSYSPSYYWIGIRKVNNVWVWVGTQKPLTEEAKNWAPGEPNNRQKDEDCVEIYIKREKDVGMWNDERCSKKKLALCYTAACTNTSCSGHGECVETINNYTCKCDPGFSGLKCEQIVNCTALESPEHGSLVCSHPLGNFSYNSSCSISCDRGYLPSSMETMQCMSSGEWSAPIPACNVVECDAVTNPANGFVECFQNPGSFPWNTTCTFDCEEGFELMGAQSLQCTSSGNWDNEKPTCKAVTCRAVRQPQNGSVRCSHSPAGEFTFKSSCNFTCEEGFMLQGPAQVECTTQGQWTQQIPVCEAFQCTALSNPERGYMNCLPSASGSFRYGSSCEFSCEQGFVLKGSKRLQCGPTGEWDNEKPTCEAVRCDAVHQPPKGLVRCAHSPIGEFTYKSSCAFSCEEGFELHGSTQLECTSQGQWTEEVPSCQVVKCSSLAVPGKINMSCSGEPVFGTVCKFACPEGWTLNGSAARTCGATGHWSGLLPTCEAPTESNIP
assay.summary: filter; 4 C, HSMC
conditions: tags: human IgG1 Fc fusion (provided by A. Varki); chain copies: 2; label: 32P; pseudoknot
quantity.name: Kd (nM)
I only need the number, in nM, no unit after it.

Problem: Kd for F14.20 (ssRNA, 2'-NH2 all C and U) RNA: GGGAGGACGAUGCGGUAACAACAAUCAAGGCGGGUUCACCGCCCCAGUAUGAGUGCAGACGACUCGCCCGA ?
Solution: 70
